# TEST TARGET: T1, ADI-76357
# T1 construct: anti-CD3 antibody made in CHO cells, captured by anti-human Fc
# T1 sequence (VH, as listed by the source, chain 1 of 2): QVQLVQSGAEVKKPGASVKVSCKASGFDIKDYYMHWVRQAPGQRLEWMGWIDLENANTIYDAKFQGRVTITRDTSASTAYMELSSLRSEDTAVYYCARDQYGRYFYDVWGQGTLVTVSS
# T1 sequence (VL, as listed by the source, chain 2 of 2): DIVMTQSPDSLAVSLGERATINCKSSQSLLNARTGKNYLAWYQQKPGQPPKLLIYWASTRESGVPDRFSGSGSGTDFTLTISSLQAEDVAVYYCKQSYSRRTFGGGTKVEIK
# ASSAY SUMMARY: SPR Carterra avidity, yeast anti-ID
binders and their reported pKd
pKd is a log-scale quantity: -log10 of the concentration expressed in molar.

BINDER	REPORTED VALUE
ADI-34132 (antibody, V domains shown, anti-ID IgG) VH: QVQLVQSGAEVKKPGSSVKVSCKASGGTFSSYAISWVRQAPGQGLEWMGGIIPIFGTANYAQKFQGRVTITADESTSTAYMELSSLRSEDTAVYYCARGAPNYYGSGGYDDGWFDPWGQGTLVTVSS VL: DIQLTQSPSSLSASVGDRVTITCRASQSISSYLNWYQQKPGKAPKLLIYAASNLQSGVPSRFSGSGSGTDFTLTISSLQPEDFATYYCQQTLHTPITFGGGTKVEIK	9.24
ADI-34137 (antibody, V domains shown, anti-ID IgG) VH: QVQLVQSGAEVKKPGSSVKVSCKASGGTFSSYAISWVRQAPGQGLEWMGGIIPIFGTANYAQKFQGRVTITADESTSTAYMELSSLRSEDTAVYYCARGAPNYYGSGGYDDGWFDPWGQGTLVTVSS VL: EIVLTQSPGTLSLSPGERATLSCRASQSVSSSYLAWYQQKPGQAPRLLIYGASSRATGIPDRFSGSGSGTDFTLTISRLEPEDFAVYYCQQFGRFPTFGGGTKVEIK	10.07
ADI-34134 IgG (antibody, V domains shown) VH: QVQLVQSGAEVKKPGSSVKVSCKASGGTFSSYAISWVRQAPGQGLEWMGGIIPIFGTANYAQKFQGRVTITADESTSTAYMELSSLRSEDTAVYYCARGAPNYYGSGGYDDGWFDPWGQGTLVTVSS VL: EIVLTQSPGTLSLSPGERATLSCRASQSVSSDYLAWYQQKPGQAPRLLIYGASSRATGIPDRFSGSGSGTDFTLTISRLEPEDFAVYYCQQFGRVPTFGGGTKVEIK	8.02
ADI-30242 (antibody, V domains shown, anti-ID IgG) VH: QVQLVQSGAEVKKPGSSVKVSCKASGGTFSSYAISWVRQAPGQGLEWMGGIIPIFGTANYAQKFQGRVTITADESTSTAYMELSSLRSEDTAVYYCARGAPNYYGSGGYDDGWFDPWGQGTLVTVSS VL: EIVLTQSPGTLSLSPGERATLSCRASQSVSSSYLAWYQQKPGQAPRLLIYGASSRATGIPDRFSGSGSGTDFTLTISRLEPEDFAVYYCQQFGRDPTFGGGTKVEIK	7.66
ADI-34135 (antibody, V domains shown, anti-ID IgG) VH: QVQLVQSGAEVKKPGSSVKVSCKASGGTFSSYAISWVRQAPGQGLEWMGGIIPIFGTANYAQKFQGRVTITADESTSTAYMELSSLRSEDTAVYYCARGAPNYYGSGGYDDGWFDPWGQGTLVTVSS VL: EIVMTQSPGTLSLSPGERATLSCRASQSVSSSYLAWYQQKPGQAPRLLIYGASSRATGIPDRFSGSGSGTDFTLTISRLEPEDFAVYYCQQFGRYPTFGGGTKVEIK	10.01

Consider the record given below.
(Q) Return pKd for the following binder: ADI-34138 (antibody, V domains shown, anti-ID IgG) VH: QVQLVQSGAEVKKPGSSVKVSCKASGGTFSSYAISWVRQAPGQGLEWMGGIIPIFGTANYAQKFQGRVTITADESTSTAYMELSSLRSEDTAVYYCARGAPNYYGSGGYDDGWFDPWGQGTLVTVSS VL: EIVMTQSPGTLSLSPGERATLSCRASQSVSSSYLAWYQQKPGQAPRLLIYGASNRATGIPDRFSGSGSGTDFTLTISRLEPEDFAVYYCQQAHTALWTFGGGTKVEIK
(A) 7.77
